test system: PAMPA; details: Papp (x 10^-6 cm/s) – ELSD Detection / [row 2]; ELSD Detection
RECORDED ENDPOINT: Papp
Quick note: number first, unit second.

These solved cases illustrate the format of a correct answer.
[
  {
    "COMPOUND": "CCCCC[C@@H]1OC(=O)[C@@H](C)N(C)C(=O)[C@H](CCCCC)OC(=O)[C@@H](C)N(C)C(=O)[C@H](CCCCC)OC(=O)[C@@H](C)N(C)C(=O)[C@H](CCCCC)OC(=O)[C@@H](C)N(C)C1=O [Compound C1.4, ent-verticilide]",
    "Papp": "7.2 ×10⁻⁶ cm/s"
  },
  {
    "COMPOUND": "CCCCC[C@@H]1OC(=O)[C@@H](C)N(C)C(=O)[C@H](CCCCC)OC(=O)[C@@H](C)N(C)C(=O)[C@H](CCCCC)OC(=O)[C@@H](C)N(C)C(=O)[C@H](CCCCC)OC(=O)[C@@H](C)N(C)C(=O)[C@H](CCCCC)OC(=O)[C@@H](C)N(C)C(=O)[C@H](CCCCC)OC(=O)[C@@H](C)N(C)C1=O",
    "Papp": "1.94 ×10⁻⁶ cm/s"
  },
  {
    "COMPOUND": "CCCCC[C@@H]1OC(=O)[C@@H](C)N(C)C(=O)[C@H](CCCCC)OC(=O)[C@@H](C)N(C)C1=O",
    "Papp": "4.48 ×10⁻⁶ cm/s"
  },
  {
    "COMPOUND": "CCCCC[C@@H]1OC(=O)[C@@H](C)N(C)C(=O)[C@H](CCCCC)OC(=O)[C@@H](C)N(C)C(=O)[C@H](CCCCC)OC(=O)[C@@H](C)N(C)C(=O)[C@H](CCCCC)OC(=O)[C@@H](C)N(C)C(=O)[C@H](CCCCC)OC(=O)[C@@H](C)N(C)C1=O",
    "Papp": "2.93 ×10⁻⁶ cm/s"
  },
  {
    "COMPOUND": "CCCCC[C@@H]1OC(=O)[C@@H](C)N(C)C(=O)[C@H](CCCCC)OC(=O)[C@@H](C)N(C)C(=O)[C@H](CCCCC)OC(=O)[C@@H](C)N(C)C1=O [Compound C1.3, ent-verticilide B1]",
    "Papp": "4.41 ×10⁻⁶ cm/s"
  }
]

Now take the following compound into account.
Specify the recorded Papp for CCCCC[C@@H]1OC(=O)[C@@H](C)N(C)C1=O , system: PAMPA. 13.6 ×10⁻⁶ cm/s

###

# Papp values compiled below
tested on: PAMPA; conditions: Papp (x 10^-6 cm/s) – ELSD Detection / [row 14]; ELSD Detection
Give the value in ×10⁻⁶ cm/s but do not write ×10⁻⁶ cm/s after it.

[
  {
    "COMPOUND": "CCCCC[C@@H]1OC(=O)[C@@H](C)N(C)C(=O)[C@H](CCCCC)OC(=O)[C@@H](C)N(C)C(=O)[C@H](CCCCC)OC(=O)[C@@H](C)N(C)C(=O)[C@H](CCCCC)OC(=O)[C@@H](C)N(C)C1=O [Compound C1.4, ent-verticilide]",
    "DISPLAY UNIT": "×10⁻⁶ cm/s",
    "REPORTED VALUE": 3.79
  }
]

Now consider a different compound.
Could you please provide reported Papp for CCCCC[C@@H]1OC(=O)[C@@H](C)N(C)C(=O)[C@H](CCCCC)OC(=O)[C@@H](C)N(C)C(=O)[C@H](CCCCC)OC(=O)[C@@H](C)N(C)C1=O [Compound C1.3, ent-verticilide B1] ? Thanks! 4.44

###

Listed compounds paired with reported Papp
test system: PAMPA; conditions: Papp (x 10^-6 cm/s) – UV Detection / [row 10]; UV Detection
Express your answer in ×10⁻⁶ cm/s, writing the number without its unit.

Illustrative cases are given below, each with its answer.
[
  {
    "COMPOUND": "CCCCC[C@@H]1OC(=O)[C@@H](C)N(C)C(=O)[C@H](CCCCC)OC(=O)[C@@H](C)N(C)C1=O",
    "REPORTED VALUE": 4.87
  },
  {
    "COMPOUND": "CCCCC[C@@H]1OC(=O)[C@@H](C)N(C)C1=O",
    "REPORTED VALUE": 15
  },
  {
    "COMPOUND": "CCCCC[C@@H]1OC(=O)[C@@H](C)N(C)C(=O)[C@H](CCCCC)OC(=O)[C@@H](C)N(C)C(=O)[C@H](CCCCC)OC(=O)[C@@H](C)N(C)C1=O [Compound C1.3, ent-verticilide B1]",
    "REPORTED VALUE": 3.7
  },
  {
    "COMPOUND": "CCCCC[C@@H]1OC(=O)[C@@H](C)N(C)C(=O)[C@H](CCCCC)OC(=O)[C@@H](C)N(C)C(=O)[C@H](CCCCC)OC(=O)[C@@H](C)N(C)C(=O)[C@H](CCCCC)OC(=O)[C@@H](C)N(C)C1=O [Compound C1.4, ent-verticilide]",
    "REPORTED VALUE": 4.63
  },
  {
    "COMPOUND": "CCCCC[C@@H]1OC(=O)[C@@H](C)N(C)C(=O)[C@H](CCCCC)OC(=O)[C@@H](C)N(C)C(=O)[C@H](CCCCC)OC(=O)[C@@H](C)N(C)C(=O)[C@H](CCCCC)OC(=O)[C@@H](C)N(C)C(=O)[C@H](CCCCC)OC(=O)[C@@H](C)N(C)C(=O)[C@H](CCCCC)OC(=O)[C@@H](C)N(C)C1=O",
    "REPORTED VALUE": 1.87
  }
]

Return reported Papp. Input compound: CCCCC[C@@H]1OC(=O)[C@@H](C)N(C)C(=O)[C@H](CCCCC)OC(=O)[C@@H](C)N(C)C(=O)[C@H](CCCCC)OC(=O)[C@@H](C)N(C)C(=O)[C@H](CCCCC)OC(=O)[C@@H](C)N(C)C(=O)[C@H](CCCCC)OC(=O)[C@@H](C)N(C)C1=O 3.64

###

assay: PAMPA, permeability assay across an artificial membrane; conditions: PAMPA, after incubation, UV detection, C0 500 uM
Recorded Acceptor Concentration, Ave values for a group of compounds are listed next.
Hi! Could you send only the number? It should be in µM, unit omitted.

Use these answered entries as a reference point.
[
  {
    "COMPOUND": "CCCCC[C@@H]1OC(=O)[C@@H](C)N(C)C(=O)[C@H](CCCCC)OC(=O)[C@@H](C)N(C)C(=O)[C@H](CCCCC)OC(=O)[C@@H](C)N(C)C(=O)[C@H](CCCCC)OC(=O)[C@@H](C)N(C)C1=O [Compound C1.4, ent-verticilide]",
    "Acceptor Concentration, Ave / µM": 127.6
  },
  {
    "COMPOUND": "CCCCC[C@@H]1OC(=O)[C@@H](C)N(C)C(=O)[C@H](CCCCC)OC(=O)[C@@H](C)N(C)C(=O)[C@H](CCCCC)OC(=O)[C@@H](C)N(C)C(=O)[C@H](CCCCC)OC(=O)[C@@H](C)N(C)C(=O)[C@H](CCCCC)OC(=O)[C@@H](C)N(C)C(=O)[C@H](CCCCC)OC(=O)[C@@H](C)N(C)C1=O",
    "Acceptor Concentration, Ave / µM": 39.95
  }
]

Okay, now this compound:
// fetch Acceptor Concentration, Ave given entry CCCCC[C@@H]1OC(=O)[C@@H](C)N(C)C(=O)[C@H](CCCCC)OC(=O)[C@@H](C)N(C)C(=O)[C@H](CCCCC)OC(=O)[C@@H](C)N(C)C1=O [Compound C1.3, ent-verticilide B1] 89.4

###

tested on: PAMPA; details: Papp (x 10^-6 cm/s) / [row 2]; UV detection
Starred links: 1 amine or outer side, 2 acyl side, 3 side chain; linkers in the order of their positions; H or OH if unused. Non-standard residues stand in square brackets, D forms with d. Residues, ends and D or L forms follow the SMILES beside them. *: point of attachment. X2 = CCCCC[C@H](O*)C(=O)OCc1ccccc1; X1 = CCCCC[C@H](O[*:1])C(=O)[*:2]; Ahp(2) = CCCCC[C@H](N)C(=O)O; dNMeA = CN[C@H](C)C(=O)O; Boc = CC(C)(C)OC(=O)*; OBn = c1ccc(CO*)cc1
Papp values for the molecules below.
Supply the numeric figure in ×10⁻⁶ cm/s, leaving out any unit text.

[
  {
    "MOLECULE": "CCCCC[C@H](NC(=O)[C@@H](C)N(C)C(=O)[C@H](CCCCC)OC(=O)[C@@H](C)N(C)C(=O)[C@H](CCCCC)NC(=O)[C@@H](C)N(C)C(=O)[C@H](CCCCC)OC(=O)[C@@H](C)N(C)C(=O)OC(C)(C)C)C(=O)OCc1ccccc1 [Compound L2.3] (Boc-[dNMeA][X1][dNMeA][Ahp(2)][dNMeA][X1][dNMeA][Ahp(2)]-OBn)",
    "DISPLAY UNIT": "×10⁻⁶ cm/s",
    "REPORTED VALUE": 3.12
  }
]

Identify measured Papp corresponding to CCCCC[C@H](NC(=O)[C@@H](C)N(C)C(=O)OC(C)(C)C)C(=O)N(C)[C@H](C)C(=O)O[C@@H](CCCCC)C(=O)N(C)[C@H](C)C(=O)O[C@@H](CCCCC)C(=O)N(C)[C@H](C)C(=O)O[C@@H](CCCCC)C(=O)OCc1ccccc1 [Compound L2.1] (Boc-[dNMeA][Ahp(2)][dNMeA][X1][dNMeA][X1][dNMeA]-X2) 4.24

Write down Papp measured for item CCCCC[C@H](OC(=O)[C@@H](C)N(C)C(=O)[C@H](CCCCC)OC(=O)[C@@H](C)N(C)C(=O)[C@H](CCCCC)OC(=O)[C@@H](C)N(C)C(=O)[C@H](CCCCC)OC(=O)[C@@H](C)N(C)C(=O)OC(C)(C)C)C(=O)OCc1ccccc1 2.02

Supply reported Papp belonging to this molecule: CCCCC[C@H](NC(=O)[C@@H](C)N(C)C(=O)[C@H](CCCCC)NC(=O)[C@@H](C)N(C)C(=O)[C@H](CCCCC)NC(=O)[C@@H](C)N(C)C(=O)[C@H](CCCCC)NC(=O)[C@@H](C)N(C)C(=O)OC(C)(C)C)C(=O)OCc1ccccc1 [Compound L2.5] (Boc-[dNMeA][Ahp(2)][dNMeA][Ahp(2)][dNMeA][Ahp(2)][dNMeA][Ahp(2)]-OBn) 2.25

Identify the reported Papp for the following entry. CCCCC[C@H](NC(=O)[C@@H](C)N(C)C(=O)OC(C)(C)C)C(=O)N(C)[C@H](C)C(=O)N[C@H](CCCCC)C(=O)N(C)[C@H](C)C(=O)O[C@@H](CCCCC)C(=O)N(C)[C@H](C)C(=O)O[C@@H](CCCCC)C(=O)OCc1ccccc1 (stereo in doubt) 2.86
